Source: the NIST ThermoML archive (doi:10.1021/je300938w)

- EXPERIMENTAL PROTOCOL: wn = mass fraction of the nth substance listed
- TEST SETTINGS: 318.15 K; 101 kPa; Liquid; Vibrating tube method; w1 = 0.05
ATTRIBUTE MEASURED: mass density (kg/m3)
Kindly answer with a numeric value in kg/m3, unit omitted.

CC(O)CN(CC(C)O)CC(C)O (centres undefined) [triisopropanolamine] + O | 993.671

Entry under review: OCCNCCO [diethanolamine] + O . Reported mass density? 996.373

Please report the recorded mass density for CC(O)CNCC(C)O (centres undefined) [N-(2-hydroxypropyl)-2-hydroxy-1-propanamine] + O . 993.508

Any idea what its mass density is? The compound is CC(O)CN (centres undefined) [1-amino-2-propanol] + O 991.399

----------
- EXPERIMENTAL PROTOCOL: wn = mass fraction of the nth substance listed
- TEST SETTINGS: 308.15 K; 101 kPa; Liquid; Vibrating tube method; w1 = 0.05
± gives the expanded uncertainty stated by the source.
ATTRIBUTE MEASURED: mass density

Entry under review: CC(O)CNCC(C)O (centres undefined) [N-(2-hydroxypropyl)-2-hydroxy-1-propanamine] + O . Reported mass density? 997.454 ± 0.042 kg/m3

----------
- EXPERIMENTAL PROTOCOL: wn = mass fraction of the nth substance listed
- TEST SETTINGS: 298.15 K; 101 kPa; Liquid; Vibrating tube method; w1 = 0.15
ATTRIBUTE MEASURED: mass density (kg/m3)
Give just the numeric value; kg/m3 need not be written.

CC(O)CNCC(C)O (centres undefined) [N-(2-hydroxypropyl)-2-hydroxy-1-propanamine] + O | 1006.99
CC(O)CN (centres undefined) [1-amino-2-propanol] + O | 999.932
OCCNCCO [diethanolamine] + O | 1014.94

Now consider the entry below.
Could you share which mass density value was measured for CC(O)CN(CC(C)O)CC(C)O (centres undefined) [triisopropanolamine] + O ? 1007.92

----------
- EXPERIMENTAL PROTOCOL: wn = mass fraction of the nth substance listed
- TEST SETTINGS: 333.15 K; 101 kPa; Liquid; Vibrating tube method; w1 = 0.2
ATTRIBUTE MEASURED: mass density (kg/m3)
Response body: numeric value in kg/m3, unit text excluded.

Known mass density results, listed for orientation:
CC(O)CN(CC(C)O)CC(C)O (centres undefined) [triisopropanolamine] + O | 993.857
CC(O)CNCC(C)O (centres undefined) [N-(2-hydroxypropyl)-2-hydroxy-1-propanamine] + O | 993.463
CC(O)CN (centres undefined) [1-amino-2-propanol] + O | 983.615

So what's the measured mass density for this one? OCCNCCO [diethanolamine] + O 1005.07

----------
Measured refractive index, listed per entry for reference.
- EXPERIMENTAL PROTOCOL: refractive index (Na D-line) (dimensionless); wn = mass fraction of the nth substance listed
- TEST SETTINGS: 338.15 K; 101 kPa; Liquid; Standard Abbe refractometry; w1 = 0.1
// return a plain number; no unit text

CC(O)CN (centres undefined) [1-amino-2-propanol] + O | 1.33832
CC(O)CNCC(C)O (centres undefined) [N-(2-hydroxypropyl)-2-hydroxy-1-propanamine] + O | 1.34037
OCCNCCO [diethanolamine] + O | 1.33938

We next turn to a different compound, shown below.
I have this compound here, CC(O)CN(CC(C)O)CC(C)O (centres undefined) [triisopropanolamine] + O , and I need its recorded refractive index. 1.34063
